Each recorded value in this set is attributed to patent US20100048727A1.

tgt: human GIVA cPLA2 (Homo sapiens, UniProt P47712)
Sequence (P47712 1-749): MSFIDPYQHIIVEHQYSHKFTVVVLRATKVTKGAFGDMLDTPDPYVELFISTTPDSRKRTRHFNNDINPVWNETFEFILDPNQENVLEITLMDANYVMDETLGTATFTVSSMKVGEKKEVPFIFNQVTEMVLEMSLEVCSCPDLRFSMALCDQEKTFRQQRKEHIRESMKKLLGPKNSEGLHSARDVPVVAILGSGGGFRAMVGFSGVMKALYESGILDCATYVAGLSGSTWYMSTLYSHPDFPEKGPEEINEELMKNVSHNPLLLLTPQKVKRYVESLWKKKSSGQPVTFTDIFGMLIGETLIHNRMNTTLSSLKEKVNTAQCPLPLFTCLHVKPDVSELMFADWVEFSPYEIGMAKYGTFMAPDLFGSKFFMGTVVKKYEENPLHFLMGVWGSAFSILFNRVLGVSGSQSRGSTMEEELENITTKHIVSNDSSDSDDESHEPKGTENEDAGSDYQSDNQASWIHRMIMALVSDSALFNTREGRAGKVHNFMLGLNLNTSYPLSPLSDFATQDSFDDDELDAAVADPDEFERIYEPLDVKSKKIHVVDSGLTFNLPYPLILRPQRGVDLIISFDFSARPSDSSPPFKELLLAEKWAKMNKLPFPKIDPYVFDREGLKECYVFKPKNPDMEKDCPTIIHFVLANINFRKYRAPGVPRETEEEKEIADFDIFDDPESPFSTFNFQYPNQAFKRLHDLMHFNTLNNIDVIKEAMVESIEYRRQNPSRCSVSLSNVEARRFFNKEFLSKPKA
assayDetails: GIVA cPLA2 specific mixed micelle assay
Format: biochemical
testConditions: 0.091 mole fraction; mean and standard error, n = 3
measuredMetric: Average percent inhibition GIVA cPLA2 (%)
Reply numerically in %, unit not repeated.

Some compounds with known Average percent inhibition GIVA cPLA2 results, for comparison:
> print(dat)
                                   compound                                       tgt  quantityunit  number
1  CCCCCCOc1ccc(CCCCC(=O)C(F)(F)F)cc1 [FKGK2]  human GIVA cPLA2 (Homo sapiens, UniProt P47712)             %      92
2  CCCCCCCCCCOc1ccc(CCC(=O)C(F)(F)F)cc1 [FKGK3]  human GIVA cPLA2 (Homo sapiens, UniProt P47712)             %      96

Reported Average percent inhibition GIVA cPLA2 of CCCCCCCCCCCCCCC(F)C(=O)C(F)(F)F (stereo not drawn) [FKGK8, 1,1,1,3-Tetrafluoro-2-heptadecanone] : 94

Item: CCCCCCCCCCOc1ccc(CCCCC(=O)C(F)(F)F)cc1 [FKGK4] | Average percent inhibition GIVA cPLA2: 95

The compound listed as O=C(CCCCCc1ccccc1)C(F)(F)C(F)(F)F [FKGK12] shows Average percent inhibition GIVA cPLA2 equal to 56

Query CCCCCCOc1ccc(CCC(=O)C(F)(F)C(F)(F)F)cc1 [FKGK14] yields Average percent inhibition GIVA cPLA2 of 73

Per the records, this compound ( O=C(CCCCCCc1ccccc1)C(F)(F)C(F)(F)F [FKGK13] ) has Average percent inhibition GIVA cPLA2 equal to 65

The recorded Average percent inhibition GIVA cPLA2 for CCCCCCOc1ccc(CCC(=O)C(F)(F)F)cc1 [FKGK1] is 91

// recorded Average percent inhibition GIVA cPLA2 for O=C(CCc1ccc(OCc2ccccc2)cc1)C(F)(F)F [FKGK5] : 88

====

Collected Average percent inhibition GVIA iPLA2 values appear next to each entry.
tgt: GVIA iPLA2 (Homo sapiens, UniProt O60733)
Sequence (O60733 1-806): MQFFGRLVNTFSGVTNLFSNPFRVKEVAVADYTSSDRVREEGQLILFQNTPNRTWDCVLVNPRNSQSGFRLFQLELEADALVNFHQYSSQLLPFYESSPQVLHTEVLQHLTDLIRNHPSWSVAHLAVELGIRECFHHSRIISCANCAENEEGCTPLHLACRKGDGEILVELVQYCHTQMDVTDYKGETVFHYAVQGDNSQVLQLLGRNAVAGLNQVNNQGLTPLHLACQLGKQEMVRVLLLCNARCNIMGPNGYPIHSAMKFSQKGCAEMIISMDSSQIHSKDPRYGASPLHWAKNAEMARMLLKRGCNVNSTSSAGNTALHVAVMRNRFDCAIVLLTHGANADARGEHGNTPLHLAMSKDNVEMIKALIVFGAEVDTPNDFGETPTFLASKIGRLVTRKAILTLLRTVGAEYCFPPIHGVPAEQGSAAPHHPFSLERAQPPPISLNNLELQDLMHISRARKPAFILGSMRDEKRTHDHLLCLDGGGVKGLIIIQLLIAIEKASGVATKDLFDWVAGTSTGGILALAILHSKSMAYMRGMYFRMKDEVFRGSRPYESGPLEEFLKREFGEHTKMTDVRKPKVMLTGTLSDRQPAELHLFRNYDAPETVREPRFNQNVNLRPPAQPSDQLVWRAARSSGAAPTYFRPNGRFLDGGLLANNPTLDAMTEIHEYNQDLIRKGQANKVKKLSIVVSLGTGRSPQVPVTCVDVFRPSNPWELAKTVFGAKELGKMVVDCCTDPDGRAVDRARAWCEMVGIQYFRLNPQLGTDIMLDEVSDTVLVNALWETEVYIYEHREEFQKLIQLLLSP
assayDetails: standard GVIA iPLA2 activity assay (DPPC/Triton X-100 mixed micelles)
Format: biochemical
testConditions: 0.091 mole fraction; mean and standard error, n = 3
Quick reminder: number only, in %, skip the unit.

Item: O=C(CCc1ccc(OCc2ccccc2)cc1)C(F)(F)F | Average percent inhibition GVIA iPLA2: 71

Quick note, Average percent inhibition GVIA iPLA2 for CCCCCCOc1ccc(CCC(=O)C(F)(F)F)cc1 landed at 85

Measured Average percent inhibition GVIA iPLA2 of CCCCCCOc1ccc(CCC(=O)C(F)(F)C(F)(F)F)cc1 : 95

The compound listed as CCCCCCCCCCOc1ccc(CCC(=O)C(F)(F)F)cc1 has a reported Average percent inhibition GVIA iPLA2 of 94

The value of Average percent inhibition GVIA iPLA2 measured for the compound O=C(CCCCc1ccccc1)C(F)(F)C(F)(F)F turned out to be 98

The compound CCCCCCOc1ccc(CCCCC(=O)C(F)(F)F)cc1 showed Average percent inhibition GVIA iPLA2 equal to 91

Entry under test: O=C(CCCCCCc1ccccc1)C(F)(F)C(F)(F)F . Its Average percent inhibition GVIA iPLA2 was 98

response.value for CCCCCCCCCCCCCCC(F)C(=O)C(F)(F)F (stereo not drawn) (field: Average percent inhibition GVIA iPLA2) = 93

Average percent inhibition GVIA iPLA2 recorded for this compound, O=C(CCCCCc1ccccc1)C(F)(F)C(F)(F)F , is 98

====

tgt: GV sPLA2 (Homo sapiens)
Sequence (P39877 21-138): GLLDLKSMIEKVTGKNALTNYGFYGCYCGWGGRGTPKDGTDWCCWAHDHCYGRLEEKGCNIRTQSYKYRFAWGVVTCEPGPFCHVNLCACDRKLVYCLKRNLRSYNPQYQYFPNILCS
assayDetails: GV sPLA2 activity assay (release of [14C]-palmitic acid from mixed micelles)
Assay type: biochemical
testConditions: 0.091 mole fraction; mean and standard error, n = 3
measuredMetric: Average percent inhibition GV sPLA2 (%)
Report as a plain number; the unit % is understood.

Guide cases for Average percent inhibition GV sPLA2, answers given:
> print(dat)
                                 compound  number
1    CCCCCCCCCCOc1ccc(CCC(=O)C(F)(F)F)cc1      80
2        CCCCCCOc1ccc(CCC(=O)C(F)(F)F)cc1      82
3  CCCCCCCCCCOc1ccc(CCCCC(=O)C(F)(F)F)cc1      84
4       O=C(CCCCCc1ccccc1)C(F)(F)C(F)(F)F      46
5      O=C(CCCCCCc1ccccc1)C(F)(F)C(F)(F)F      75
6      CCCCCCOc1ccc(CCCCC(=O)C(F)(F)F)cc1      86

Average percent inhibition GV sPLA2 in this record for O=C(CCc1ccc(OCc2ccccc2)cc1)C(F)(F)F : 49

The reported Average percent inhibition GV sPLA2 of the compound CCCCCCOc1ccc(CCC(=O)C(F)(F)C(F)(F)F)cc1 was 86

Record summary for CCCCCCCCCCCCCCC(F)C(=O)C(F)(F)F (stereo not drawn) : reported Average percent inhibition GV sPLA2 = 86
